B1: library; numbered along this chain (parent)
chain: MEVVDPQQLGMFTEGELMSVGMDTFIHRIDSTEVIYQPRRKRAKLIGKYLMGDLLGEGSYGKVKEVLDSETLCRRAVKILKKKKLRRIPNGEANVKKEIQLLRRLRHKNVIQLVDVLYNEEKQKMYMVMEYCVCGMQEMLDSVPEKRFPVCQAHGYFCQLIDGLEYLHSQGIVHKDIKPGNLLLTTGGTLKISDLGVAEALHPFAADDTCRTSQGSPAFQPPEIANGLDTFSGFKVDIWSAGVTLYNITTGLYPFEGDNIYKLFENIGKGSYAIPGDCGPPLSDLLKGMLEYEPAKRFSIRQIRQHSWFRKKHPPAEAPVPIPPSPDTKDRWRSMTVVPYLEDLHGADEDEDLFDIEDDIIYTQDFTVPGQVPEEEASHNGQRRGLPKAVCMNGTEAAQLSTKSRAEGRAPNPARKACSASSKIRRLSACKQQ

variants of: B1; assay: STK11 functional score (HeLa growth suppression), rescaled enrichment; synonymous median = 1, nonsense median = 0 (normalised score); details: with HeLa; variant type: missense
Parameter STK11 functional score: see the listing below.
Keep the answer to the number alone.

Example results:
### Prompt Reported STK11 functional score for I274V : what is it?
### Response 0.7

### Prompt Reported STK11 functional score for D229R : what is it?
### Response 0.991

Others:
### Prompt Reported STK11 functional score for G288Y : what is it?
### Response 0.713
